B1: CPEB3 Ribozyme (parent)
chain: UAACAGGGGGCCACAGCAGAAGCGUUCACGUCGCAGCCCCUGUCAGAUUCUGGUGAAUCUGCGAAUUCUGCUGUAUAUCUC

variants of: B1; experiment: self-cleavage, relative activity (ratio to wild type); higher = more cleavage; in vitro, sequencing
readout.kind: self-cleavage
# respond with the number and nothing more

A2G A65U : 0.38
U26C C38U : 0.4
U25A U49G : 0.19

Query A3U C81G yields self-cleavage of 1.21

Query `U67A` yields self-cleavage of 0.54

Query G6A G61A yields self-cleavage of 0.34

Query A15G G53A yields self-cleavage of 1.02

Query A35G C39U yields self-cleavage of 1.21
